# protocol description: CCTE_Mundy_HCI_Cortical_Synap_Neur_Matur_BPCount: CCTE's Synaptogenesis and Neurite Maturation Assay in rat cortical cells for Branch Point Count, Mundy Lab (AID 2284211)
The source made the active and inactive calls. Rule for the calls: active = hit-call score of the fitted dose curve at least 0.9, where 1 is the maximum; inactive = score below 0.9.
Possible outcomes: 1 = active, -1 = inactive

{"columns": ["compound", "assigned category"],
 "data": [
  ["COP(=S)(OC)SCn1nnc2ccccc2c1=O", -1],
  ["CC(C)(C)C(=O)C(Oc1ccc(Cl)cc1)n1cncn1 (stereo not drawn)", 1],
  ["O=C(Nc1ccccc1-c1ccc(Cl)cc1)c1cccnc1Cl", -1],
  ["COP(=O)(OC)O/C(C)=C/C(=O)N(C)C", -1],
  ["CC1(C)C(C=C(Cl)Cl)C1C(=O)OC(C#N)c1cccc(Oc2ccccc2)c1 (stereo not drawn)", 1],
  ["CS(=O)(=O)c1ccc(C(=O)C2C(=O)CCCC2=O)c([N+](=O)[O-])c1", -1],
  ["CNC(=O)Oc1cccc2ccccc12", -1],
  ["COC(=O)N(C(=O)N1CO[C@@]2(C(=O)OC)Cc3cc(Cl)ccc3C2=N1)c1ccc(OC(F)(F)F)cc1", -1]
]}
